MEASURED_QUANTITY: melting point

The following compounds have reported results that may help.
>>> print(df.to_string())
                                   compound  measured_quantity     data_value
0  O=C(CC(c1c(Cl)cccc1Cl)c1c[nH]c2ccccc12)c1ccccc1 (stereo not shown) [Compound 3m]      melting point  119 to 121 °C
1  Cc1cccc(C(CC(=O)c2ccccc2)c2c[nH]c3ccccc23)c1 (stereo not shown) [Compound 3n]      melting point  130 to 132 °C
2  O=C(CC(c1cccc([N+](=O)[O-])c1)c1c[nH]c2ccccc12)c1ccccc1 (stereo not shown) [Compound 3p]      melting point  105 to 107 °C

Now let's try a different one.
Query string: Any idea what melting point was measured for O=C(C[C@@H](c1ccc(Cl)cc1)c1c[nH]c2ccccc12)c1ccc2ccccc2c1 [Compound 3b] ?
Result string: 237 to 241 °C
